# System: Phenylethanolamine N-methyltransferase (rabbit)
# method.notes: Ability to inhibit rabbit adrenal phenylethanolamine N-methyl-transferase norepinephrine to epinephrine (E13), in vitro, at 10 e-6 M
# experimental.conditions: Oryctolagus cuniculus
reported.metric: inhibition (%)
Answer format: numeric, % implied, no suffix.

Solved cases (4 shown):
c1ccc2c3c(ccc2c1)CCNC3 | 14
c1cc2[nH]nnc2c2c1CCNC2 | 20
c1nc2c3c(ccc2[nH]1)CCNC3 | 0
c1cc2nnsc2c2c1CCNC2 | 91

Could you now look at the following molecule, please?
Qu. Give the measured inhibition of c1nc2ccc3c(c2s1)CNCC3 .
Ans. 24

###

Entries and their inhibition
# Test system: Phenylethanolamine N-methyltransferase (rabbit)
# method.notes: Ability to inhibit rabbit adrenal PNMT norepinephrine to epinephrine (E13), in vitro, at 10 e-6 M
# experimental.conditions: Oryctolagus cuniculus
Answer format: numeric, % implied, no suffix.

Solved cases (3 shown):
Clc1cc2snnc2c2c1CCNC2 | 51
Oc1nc2c3c(ccc2[nH]1)CCNC3 | 1
Nc1nc2ccc3c(c2s1)CNCC3 | 15

Could you now look at the following compound, please?
Qu. Give the measured inhibition of Oc1nc2c3c(ccc2s1)CCNC3 .
Ans. 3

###

Entries and their inhibition
# Test system: Phenylethanolamine N-methyltransferase (rabbit)
# method.notes: Ability to inhibit rabbit adrenal PNMT norepinephrine to epinephrine (E13), in vitro, at 10 e-4 M compound concentration.
# experimental.conditions: Oryctolagus cuniculus
Answer format: numeric, % implied, no suffix.

Qu. Give the measured inhibition of Oc1nc2c3c(ccc2[nH]1)CCNC3 .
Ans. 4

Qu. Give the measured inhibition of Nc1nc2ccc3c(c2s1)CNCC3 .
Ans. 41

Qu. Give the measured inhibition of Oc1nc2c3c(ccc2s1)CCNC3 .
Ans. 37

Qu. Give the measured inhibition of Clc1cc2snnc2c2c1CCNC2 .
Ans. 98
